Experiment: in vivo
Details: male, C57BL/6, mouse, sc, 10 mg/kg
Test Readout: Cmax (ng/mL)
Numbers only; they are read as ng/mL.

Entry COc1cc(CCC(C)NCc2ccc(C(F)(F)F)cc2)ccc1O (stereo not shown) : reported Cmax = ? 279

###

Target: sigma-2 receptor (Rattus norvegicus)
Sequence (Q5U3Y7 whole entry): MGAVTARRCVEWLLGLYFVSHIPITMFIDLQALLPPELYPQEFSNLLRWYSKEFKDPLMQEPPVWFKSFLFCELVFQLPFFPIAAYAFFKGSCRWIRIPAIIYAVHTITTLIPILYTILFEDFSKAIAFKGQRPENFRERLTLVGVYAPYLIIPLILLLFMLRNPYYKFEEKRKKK
Experiment: Sigma-2 competitive radioligand binding, [3H]DTG with 300 nM (+)pentazocine, rat cerebral cortex membranes
Settings: Sigma Affinity (S2) nM, Table 11E, own compounds
Test Readout: Ki (nM)
Numbers only; they are read as nM.

Form field: Ki recorded for COc1cc(CCC(C)NCc2ccc(C(F)(F)F)cc2)ccc1O (stereo not shown) [Compound II] with sigma-2 receptor (Rattus norvegicus) (enter value) 9
